Values were extracted from patent US7498436B2.

>  <Smiles Input>
CCCN(CCC)C(=O)c1cc(C(=O)N[C@@H](Cc2ccccc2)[C@H](O)CNCc2cccc(OC)c2)cc(-c2ccccc2)c1.Cl

>  <melting point>
214 to 219 °C

$$$$
>  <Smiles Input>
CCCN(CCC)C(=O)c1cc(C(=O)N[C@@H](Cc2cc(F)cc(F)c2)[C@H](O)CNCc2cccc(OC)c2)cc(-c2ccccc2)c1.Cl

>  <melting point>
230 to 233 °C

$$$$
>  <Smiles Input>
CCCN(CCC)C(=O)c1cc(C(=O)N[C@@H](Cc2ccccc2)[C@H](O)CNCc2cccc(OC)c2)cc(-c2ccsc2)c1.Cl

>  <melting point>
199 to 201 °C

$$$$
>  <Smiles Input>
CCCN(CCC)C(=O)c1cc(C(=O)N[C@@H](Cc2ccccc2)[C@H](O)CNCc2cccc(OC)c2)cc(-c2ccc(OC)cc2)c1.Cl

>  <melting point>
205 to 209 °C

$$$$
